system.tested: mouse EP2 receptor (Mus musculus, UniProt Q62053)
Construct: expressed in transfected cells; host or cells: CHO (EP2-CHO)
Sequence (Q62053 whole entry): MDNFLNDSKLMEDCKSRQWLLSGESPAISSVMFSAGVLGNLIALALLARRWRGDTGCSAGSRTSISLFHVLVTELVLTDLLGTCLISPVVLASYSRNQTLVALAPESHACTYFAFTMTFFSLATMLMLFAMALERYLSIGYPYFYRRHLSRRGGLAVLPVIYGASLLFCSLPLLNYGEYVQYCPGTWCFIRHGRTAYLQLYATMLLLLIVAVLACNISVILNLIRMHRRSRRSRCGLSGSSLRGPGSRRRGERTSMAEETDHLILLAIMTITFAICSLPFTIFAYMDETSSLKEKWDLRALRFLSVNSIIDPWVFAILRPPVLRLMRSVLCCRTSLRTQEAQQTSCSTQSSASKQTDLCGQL
protocol.notes: Measurement of EP2 agonist activity (cAMP concentration) in EP2-CHO cells
Type: cell-based
experimental.setup: cAMP production, read-out: Agonist activity on various prostanoid receptors: EC50 value, EP2
pEC50: −log10 of the molar value.
value.type: pEC50

Would you mind telling me what pEC50 value was observed for CCCCC[C@H](O)/C=C/[C@@H]1[C@H]2CC[C@H](CCCC(=O)O)S[C@H]2C[C@H]1O [Comparative Compound B, reference compound] ? 7.66

Would you mind telling me what pEC50 value was observed for "O=C(O)CCC[C@H]1CC[C@@H]2[C@@H](/C=C/[C@@H](O)COc3ccccc3)[C@H](O)C[C@@H]2O1" ? < 4.00

Would you mind telling me what pEC50 value was observed for "O=C(O)CCC[C@H]1CC[C@@H]2[C@@H](/C=C/[C@@H](O)COc3ccccc3)[C@H](O)C[C@@H]2S1" ? < 4.00
